test: inhibition of NOD1-driven NF-kB reporter – cell-based, luminescence, uHTS, primary screen (AID 1578); details: NOD1-driven NF-kB luciferase reporter cells, at 4 µM, hits give high values;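 further: HEK-293T reporter cells stimulated with the NOD1 agonist gamma-tri-DAP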
The whole screen tested about 290,000 compounds, of which about 3,000 (1%) were called active. The entries come from a sample that favours actives as a whole.
Catalogue of molecules with associated inhibition
Kindly answer with a numeric value in %, unit omitted.

Example results:
Q: For the molecule COc1ccccc1OCCCn1cc(C(=O)c2ccco2)c2ccccc21 , what inhibition is on record?
Ans: 3.3

Q: Reported inhibition for CCc1ccc(CN2CCCC(C(=O)c3sccc3C)C2)o1 (centres undefined) : what is it?
Ans: -19

Q: I would be grateful if you could share the reported inhibition for Cc1ncc(CN2CCCC(C(=O)c3sccc3C)C2)s1 (centres undefined) .
Ans: -24.9

Q: May I ask what inhibition has been recorded for Cc1ccsc1C(=O)C1CCCN(Cc2cnc(N3CCOCC3)s2)C1 (centres undefined) ?
Ans: 46.6

Q: Sample CCOC(=O)CNC(=O)CNC(=O)C(Cc1ccc(N(CCCl)CCCl)cc1)NC(C)=O (centres undefined) — what was its inhibition?
Ans: -43.1

Q: // returns reported inhibition for input Cc1ccsc1C(=O)C1CCCN(Cc2sc(N(C)C)nc2Cl)C1 (centres undefined)
Ans: 60.9

Q: Item Cc1c(C=O)c2ccccc2n1Cc1ccccc1F has what recorded inhibition?
Ans: 5

Q: // inhibition lookup, key: NC(=S)c1cn(C2OC(CO)C(O)C2O)c2ncnc(N)c12 (centres undefined)
Ans: 104

Next:
Q: Look at this molecule and give its reported inhibition. CCCCCn1c(=O)c(C(=O)Nc2nc(CC(=O)OCC)cs2)c(O)c2ccccc21
Ans: -28.8

Q: inhibition for Cc1ccsc1C(=O)C1CCCN(Cc2ccc(O)cc2)C1 (centres undefined) ?
Ans: -32.6

Q: Form field: reported inhibition of CC(C)=CCc1c(O)cc2c(c1O)C(=O)CC(c1ccc(O)cc1)O2 (centres undefined)
Ans: 5.8

Q: Endpoint output: inhibition of Cc1cccc(N2CCN(CCc3ccccc3)CC2)c1C . Value?
Ans: 11.9

Q: Which measured inhibition value corresponds to CCCCCCn1c(=O)c(C(=O)Nc2ccncc2)c(O)c2ccccc21 ?
Ans: 63.9

Q: Find the recorded inhibition belonging to Cc1ccsc1C(=O)C1CCCN(Cc2cc3ccccc3o2)C1 (centres undefined) and report it.
Ans: 75.6

Q: Query: inhibition; subject: N#CC(C#N)=NNc1ccc(S(N)(=O)=O)cc1
Ans: -10.8

Q: GET /values?readout=inhibition&item= Cc1ccc(CN2CCCC(C(=O)c3sccc3C)C2)o1 (centres undefined)
Ans: -19.5

Q: Give its inhibition value. Item: Cc1c(P(=S)(c2ccccc2)c2ccccc2)[n+]2ccccc2n1C
Ans: -18.7

Q: Find the recorded inhibition belonging to CCNC(=O)[C@H]1O[C@@H](n2cnc3c(N)ncnc32)[C@H](O)[C@@H]1O and report it.
Ans: -5.6

Q: Which inhibition is reported for this molecule? COc1ccc(-n2nc(C(=O)NCC(=O)N3CCC4(CC3)OCCO4)c3ccccc3c2=O)cc1
Ans: -47.4

Q: What measured inhibition goes with C=C(C=O)C[C@@H]1C[C@H](O)C2OC3C[C@]4(C)OC5/C=C\CC6OC7C(CC=CCC6OC5CCCC4OC3CC2O1)OC1CC2OC3CC(=O)OC3C[C@@H](C)C[C@@]2(C)OC1C[C@@H]7C (some centres undefined) ?
Ans: 76

Q: Would you kindly share the measured inhibition for CCOc1ccccc1Oc1coc2cc(OC(=O)N(C)C)ccc2c1=O ?
Ans: 0.4

Q: Which inhibition is listed for CCCCCn1c(=O)c(C(=O)Nc2ccccc2)c(O)c2ccccc21 ?
Ans: -20.5

Q: Entry Cc1ccsc1C(=O)C1CCCN(Cc2cnc(N(C)C)s2)C1 (centres undefined) : reported inhibition = ?
Ans: -26.4

Q: // query inhibition value for entry C=C(CO)CC1CC(O)[C@]2(C)OC3CC4OC5C[C@]6(C)O[C@]7(C)CCC8OC9C[C@]%10(C)OC%11C(C)=CC(=O)OC%11CC%10OC9C[C@@H](C)C8OC7CC6O[C@]5(C)C/C=C\C4OC3CC2O1 (some centres undefined)
Ans: -6.2
